FYI, the data here is from ChEMBL document CHEMBL4052601.

tested on: RAW264.7; test: Antiinflammatory activity against mouse RAW264.7 cells assessed as inhibition of LPS-induced nitric oxide production at 10 uM after 24 hrs by Griess assay relative to control; assay type: functional; settings: RAW264.7, 24 h
Quick reference: inhibition at 10 µM of the listed items.
Provide only the numeric value, understood in %.

// known answers, use as guide
CC1(C)C=Cc2cc(/C=C/C(=O)c3ccc(O)cc3O)ccc2O1 = 0
COc1ccc([C@@H]2COc3c(ccc(O)c3CC=C(C)C)C2)c(O)c1O = 33
CC1(C)C=Cc2c(ccc3c(=O)c(Oc4ccc(O)cc4O)coc23)O1 = 6.3
CC1(C)C=Cc2c(ccc3c2OCC(c2ccc(O)cc2O)=C3)O1 = 21.4
CC1(C)C=Cc2c(ccc([C@@H]3COc4c(ccc5c4C=CC(C)(C)O5)C3)c2O)O1 = 10.5
CC(C)=CCc1c(O)ccc([C@@H]2COc3c(ccc4c3C=CC(C)(C)O4)C2)c1O = 4

Exercise: Param readout= inhibition at 10 µM; system= RAW264.7; entry= CC(C)=CCc1cc(C[C@@H](O)C(=O)c2ccc(O)c(CC=C(C)C)c2O)ccc1O ; returns value.
Solution: 4.1

Exercise: Param readout= inhibition at 10 µM; system= RAW264.7; entry= CC1(C)C=Cc2c(ccc(-c3coc4cc(O)ccc4c3=O)c2O)O1 ; returns value.
Solution: 42
